This collection of values is drawn from a melting point compilation (Tetko et al.; mined from patent text by program, amines drawn as free bases though some values may be those of a salt).

// melting point lookup, one value per entry
measurement.type: melting point

>>> result("COc1ccc2c(c1)C(CCNC(C)=O)=C(Cc1ccccc1)C2")
"133 to 135 °C"
>>> result("C=CCc1c([N+](=O)[O-])ccc2c1OC(CO)CO2 (stereo not given)")
"67 °C"
>>> result("CCC1c2cccn2-c2ccc(Cl)cc2N1C(=O)c1ccc(O)cc1O (stereo not given)")
"198 to 201 °C"
>>> result("Cc1nc(C)c(C(=O)Nc2ccc(-n3nc(C(F)(F)F)cc3C3CC3)cc2)s1")
"117 to 122 °C"
>>> result("CCOc1ccc2c(c1)n(C1CCCC1)c(=O)n2S(=O)(=O)c1ccc(C(=O)OC)cc1OC")
"151 °C"
